Target: T1, human OPGbp [143-317] (human, UniProt O14788 143-317)
T1 construct: also called OPGL
T1 sequence (looked up): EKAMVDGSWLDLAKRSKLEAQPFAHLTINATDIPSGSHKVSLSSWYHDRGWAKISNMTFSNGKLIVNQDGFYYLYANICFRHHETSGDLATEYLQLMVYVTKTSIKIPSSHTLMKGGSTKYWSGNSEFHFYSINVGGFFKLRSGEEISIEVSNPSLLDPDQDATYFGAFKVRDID
Assay: SPR (BIAcore), immobilized OPGbp [143-317]
Measured koff accompanies every entry in the list below.
Field format: number, assumed s⁻¹, no unit text.

These recorded examples may help you get a feel for the data.
“AT” antibody variant N98G (heavy chain CDR3) (antibody, name in Kabat numbering, V domains shown, not shown: human IgG1 CH1, hinge, CH2 and CH3) VH: QVQLVQSGAEVRKPGASVKVSCKASGYDFSNYAIHWVRQAPGQRLEWMGWINAGNGNTKFSQKFQGRITVTRDTAASTAYMELRSLRSEDTAVYYCARDSSGMVRGIIIAYYFDYWGQGTLVTVSS VL: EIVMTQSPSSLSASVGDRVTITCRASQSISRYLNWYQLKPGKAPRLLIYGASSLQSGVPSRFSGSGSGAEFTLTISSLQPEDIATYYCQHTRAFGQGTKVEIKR
0.00559
“AT” antibody variant N98S (heavy chain CDR3) (antibody, name in Kabat numbering, V domains shown, not shown: human IgG1 CH1, hinge, CH2 and CH3) VH: QVQLVQSGAEVRKPGASVKVSCKASGYDFSNYAIHWVRQAPGQRLEWMGWINAGNGNTKFSQKFQGRITVTRDTAASTAYMELRSLRSEDTAVYYCARDSSSMVRGIIIAYYFDYWGQGTLVTVSS VL: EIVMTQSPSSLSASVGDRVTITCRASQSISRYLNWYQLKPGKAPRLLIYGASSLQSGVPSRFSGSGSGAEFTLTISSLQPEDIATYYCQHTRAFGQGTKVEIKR
0.00154
“AT” antibody variant N98E (heavy chain CDR3) (antibody, name in Kabat numbering, V domains shown, not shown: human IgG1 CH1, hinge, CH2 and CH3) VH: QVQLVQSGAEVRKPGASVKVSCKASGYDFSNYAIHWVRQAPGQRLEWMGWINAGNGNTKFSQKFQGRITVTRDTAASTAYMELRSLRSEDTAVYYCARDSSEMVRGIIIAYYFDYWGQGTLVTVSS VL: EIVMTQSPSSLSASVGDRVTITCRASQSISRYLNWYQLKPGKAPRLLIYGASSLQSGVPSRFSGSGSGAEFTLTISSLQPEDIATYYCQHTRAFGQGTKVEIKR
0.00359

[Q] Using the record for “AT” antibody variant N98R (heavy chain CDR3) (antibody, name in Kabat numbering, V domains shown, not shown: human IgG1 CH1, hinge, CH2 and CH3) VH: QVQLVQSGAEVRKPGASVKVSCKASGYDFSNYAIHWVRQAPGQRLEWMGWINAGNGNTKFSQKFQGRITVTRDTAASTAYMELRSLRSEDTAVYYCARDSSRMVRGIIIAYYFDYWGQGTLVTVSS VL: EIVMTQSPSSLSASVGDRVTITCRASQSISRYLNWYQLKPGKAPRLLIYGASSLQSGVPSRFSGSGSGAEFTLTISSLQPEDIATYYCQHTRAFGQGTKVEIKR , report its koff.
[A] 0.00108
